Target: T1, B7-H4ECD his-tagged protein (Sinobiologics) (human, UniProt Q7Z7D3 25-259)
T1 construct: Bought protein; Result paragraph calls the target human B7-H4; also called B7-H4 extracellular domain; not shown: his tag
T1 sequence: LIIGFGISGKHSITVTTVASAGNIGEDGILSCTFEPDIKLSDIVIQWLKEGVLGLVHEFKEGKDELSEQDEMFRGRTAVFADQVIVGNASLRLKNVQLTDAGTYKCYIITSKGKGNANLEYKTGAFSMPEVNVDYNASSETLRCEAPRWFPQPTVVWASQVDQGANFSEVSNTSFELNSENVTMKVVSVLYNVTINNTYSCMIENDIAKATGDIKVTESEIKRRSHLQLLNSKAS
Assay: ELISA, B7-H4ECD his-tagged protein coated
Below, each entry is listed alongside its reported EC50.
Supply the numeric figure in nM, leaving out any unit text.

chimeric 6H3 (antibody, V domains shown, Mouse variable regions with constant regions from the human IgG1 heavy chain and human kappa light chain; also called human chimeric 6H3; hc6H3) VH: EVQLQQSGPVLVKPGTSVKMSCKASGYTFTDYYMNWVKQSHGKSLEWIGVINPYNGDTTYNQKFKGKATLTVDKSSSTAYMEVNSLTFEDSAVYYCARYPESTYWGQGTLVTVSA VL: DVVMTQTPLSLPVSLGDQASISCRSSQSLVHINGNTYLHWYLQKPGQSPKVLIYKVSNRFSGVPDRFSGSGSGTDFTLKISRVEAEDLGVYFCSQSTHVPLTFGAGTKLELK; 0.62
humanized 6H3 variant 4 (antibody, V domains shown, also called V4; Variant 4 (antibody)) VH: EVQLVQSGAEMKKPGASVKVSCKASGYTFTDYYMNWVRQAPGQSLEWIGVINPYNGDTTYNQKFQGRVTVTVDKSATTAYMELSSLRSEDTAVYYCARYPESTYWGQGTLVTVSS VL: DVVMTQSPLSLPVTLGQPASISCRSSQSLVHINGNTYLHWYQQRPGQSPRVLIYKVSNRFSGVPDRFSGSGSGTDFTLKISRVEAEDVGVYFCSQSTHVPLTFGGGTKVEIK; 1.16

Next item in the queue.
If you can, please state the reported EC50 value of humanized 6H3 variant 6 (antibody, V domains shown, also called V6; Variant 6 (antibody)) VH: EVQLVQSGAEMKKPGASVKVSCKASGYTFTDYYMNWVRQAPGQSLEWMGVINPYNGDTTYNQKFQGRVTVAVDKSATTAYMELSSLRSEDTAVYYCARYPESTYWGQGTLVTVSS VL: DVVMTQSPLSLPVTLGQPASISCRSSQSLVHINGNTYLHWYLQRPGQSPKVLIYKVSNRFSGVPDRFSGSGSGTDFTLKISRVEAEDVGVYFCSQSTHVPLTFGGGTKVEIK .
1.64
